Values compiled from the supplement of paper PMC10307832.

tested on: NCI-H1734; assay: relative viability (nuclei count vs DMSO), 5 days (fraction); higher = more cells survive; settings: first compound 0.1 µM
Measurement Name: relative viability
Form rule: numeric answer, no unit written next to it.

O=c1cc(N2CCOCC2)oc2c(-c3cccc4c3sc3ccccc34)cccc12 + CCNC(=O)c1noc(-c2cc(C(C)C)c(O)cc2O)c1-c1ccc(CN2CCOCC2)cc1 [Luminespib] (partner 0.01 µM) has a reported relative viability of 0.216

O=c1cc(N2CCOCC2)oc2c(-c3cccc4c3sc3ccccc34)cccc12 + C[C@@H](Oc1cc(-c2cnn(C3CCNCC3)c2)cnc1N)c1c(Cl)ccc(F)c1Cl [Crizotinib] (partner 1 µM) has a reported relative viability of 0.699

O=c1cc(N2CCOCC2)oc2c(-c3cccc4c3sc3ccccc34)cccc12 + N=C(N)NC(=N)NCCc1ccccc1 [Phenformin] (partner 250 µM) has a reported relative viability of 0.403

* * *

test system: RERF-LC-KJ; test: relative viability (nuclei count vs DMSO), 5 days (fraction); higher = more cells survive; conditions: first compound 0.03162 µM
Give measured relative viability for each item. Keep answers brief.
Form rule: numeric answer, no unit written next to it.

CCN(CC)CCCCNc1ncc2cc(-c3cc(OC)cc(OC)c3)c(NC(=O)NC(C)(C)C)nc2n1 + COc1cccc2cc(-c3nc([C@H]4CC[C@H](C(=O)O)CC4)n4ncnc(N)c34)[nH]c12 [OSI-027] (partner 0.5 µM) has a reported relative viability of 0.678

CCN(CC)CCCCNc1ncc2cc(-c3cc(OC)cc(OC)c3)c(NC(=O)NC(C)(C)C)nc2n1 + Cc1nc(NC(=O)N2CCC[C@H]2C(N)=O)sc1-c1ccnc(C(C)(C)C(F)(F)F)c1 [Alpelisib] (partner 2 µM) has a reported relative viability of 0.919

O=c1cc(N2CCOCC2)oc2c(-c3cccc4c3sc3ccccc34)cccc12 + CS(=O)(=O)CCNCc1ccc(-c2ccc3ncnc(Nc4ccc(OCc5cccc(F)c5)c(Cl)c4)c3c2)o1 [Lapatinib] (partner 2 µM) has a reported relative viability of 0.882

* * *

system: LK-2; assay: relative viability (nuclei count vs DMSO), 5 days (fraction); higher = more cells survive; details: first compound 0.253 µM
Give measured relative viability for each item. Keep answers brief.
Form rule: numeric answer, no unit written next to it.

COc1nc(C)cnc1NS(=O)(=O)c1cccnc1-c1ccc(-c2nnco2)cc1 [Zibotentan] + C[C@@H](Oc1cc(-c2cnn(C3CCNCC3)c2)cnc1N)c1c(Cl)ccc(F)c1Cl [Crizotinib] (partner 1 µM) has a reported relative viability of 0.237

O=c1cc(-c2cccc3c2Sc2ccccc2S3)oc(N2CCOCC2)c1 + CC(=O)c1c(C)c2cnc(Nc3ccc(N4CCNCC4)cn3)nc2n(C2CCCC2)c1=O [Palbociclib] (partner 0.5 µM) has a reported relative viability of 0.8

O=c1cc(-c2cccc3c2Sc2ccccc2S3)oc(N2CCOCC2)c1 + CS(=O)(=O)N1CCN(Cc2cc3nc(-c4cccc5[nH]ncc45)nc(N4CCOCC4)c3s2)CC1 [Pictilisib] (partner 1 µM) has a reported relative viability of 0.51

COc1nc(C)cnc1NS(=O)(=O)c1cccnc1-c1ccc(-c2nnco2)cc1 [Zibotentan] + O=C(CCCCCCC(=O)Nc1ccccc1)NO [Vorinostat] (partner 1 µM) has a reported relative viability of 0.305

COc1nc(C)cnc1NS(=O)(=O)c1cccnc1-c1ccc(-c2nnco2)cc1 [Zibotentan] + Nc1ncn([C@H]2C[C@H](O)[C@@H](CO)O2)c(=O)n1 [Decitabine] (partner 2 µM) has a reported relative viability of 0.289

COc1nc(C)cnc1NS(=O)(=O)c1cccnc1-c1ccc(-c2nnco2)cc1 [Zibotentan] + CS(=O)(=O)N1CCN(Cc2cc3nc(-c4cccc5[nH]ncc45)nc(N4CCOCC4)c3s2)CC1 [Pictilisib] (partner 1 µM) has a reported relative viability of 0.471

O=c1cc(-c2cccc3c2Sc2ccccc2S3)oc(N2CCOCC2)c1 + O=C(c1cc(Cc2n[nH]c(=O)c3ccccc23)ccc1F)N1CCN(C(=O)C2CC2)CC1 [Olaparib] (partner 8 µM) has a reported relative viability of 0.793

* * *

test system: NCI-H647; assay: relative viability (nuclei count vs DMSO), 5 days (fraction); higher = more cells survive; details: first compound 0.08 µM
Measurement Name: relative viability

With NCI-H647 as the test system, COc1nc(C)cnc1NS(=O)(=O)c1cccnc1-c1ccc(-c2nnco2)cc1 [Zibotentan] + COc1cccc2cc(-c3nc([C@H]4CC[C@H](C(=O)O)CC4)n4ncnc(N)c34)[nH]c12 [OSI-027] (partner 0.5 µM) showed relative viability of 0.665

With NCI-H647 as the test system, O=c1cc(-c2cccc3c2Sc2ccccc2S3)oc(N2CCOCC2)c1 + C[C@@H](Oc1cc(-c2cnn(C3CCNCC3)c2)cnc1N)c1c(Cl)ccc(F)c1Cl [Crizotinib] (partner 1 µM) showed relative viability of 1.06

With NCI-H647 as the test system, COc1nc(C)cnc1NS(=O)(=O)c1cccnc1-c1ccc(-c2nnco2)cc1 [Zibotentan] + CCNC(=O)c1noc(-c2cc(C(C)C)c(O)cc2O)c1-c1ccc(CN2CCOCC2)cc1 [Luminespib] (partner 0.01 µM) showed relative viability of 0.244

* * *

test system: A-427; test: relative viability (nuclei count vs DMSO), 5 days (fraction); higher = more cells survive; conditions: first compound 0.3162 µM
Could you please mark Met for values of relative viability below 0.8 and Not met for values at or above it?

Take the compound O=c1cc(N2CCOCC2)oc2c(-c3cccc4c3sc3ccccc34)cccc12 + COc1cc2c(Oc3ccc(NC(=O)C4(C(=O)Nc5ccc(F)cc5)CC4)cc3F)ccnc2cc1OCCCN1CCOCC1 [Foretinib] (partner 0.25 µM) and say whether its relative viability is less than 0.8.
Not met

Take the compound CCN(CC)CCCCNc1ncc2cc(-c3cc(OC)cc(OC)c3)c(NC(=O)NC(C)(C)C)nc2n1 + O=C(CCCCCCC(=O)Nc1ccccc1)NO [Vorinostat] (partner 1 µM) and say whether its relative viability is less than 0.8.
Not met

Take the compound CCN(CC)CCCCNc1ncc2cc(-c3cc(OC)cc(OC)c3)c(NC(=O)NC(C)(C)C)nc2n1 + CC(=O)Nc1cccc(-n2c(=O)n(C3CC3)c(=O)c3c(Nc4ccc(I)cc4F)n(C)c(=O)c(C)c32)c1 [Trametinib] (partner 0.02 µM) and say whether its relative viability is less than 0.8.
Met

Take the compound CCN(CC)CCCCNc1ncc2cc(-c3cc(OC)cc(OC)c3)c(NC(=O)NC(C)(C)C)nc2n1 + N=C(N)NC(=N)NCCc1ccccc1 [Phenformin] (partner 250 µM) and say whether its relative viability is less than 0.8.
Met

* * *

system: NCI-H1993; assay: relative viability (nuclei count vs DMSO), 5 days (fraction); higher = more cells survive; details: first compound 0.253 µM
Give measured relative viability for each item. Keep answers brief.

O=c1cc(-c2cccc3c2Sc2ccccc2S3)oc(N2CCOCC2)c1 + N=C(N)NC(=N)NCCc1ccccc1 [Phenformin] (partner 250 µM) has a reported relative viability of 0.52

COc1nc(C)cnc1NS(=O)(=O)c1cccnc1-c1ccc(-c2nnco2)cc1 [Zibotentan] + CCNC(=O)c1noc(-c2cc(C(C)C)c(O)cc2O)c1-c1ccc(CN2CCOCC2)cc1 [Luminespib] (partner 0.01 µM) has a reported relative viability of 0.978

O=c1cc(-c2cccc3c2Sc2ccccc2S3)oc(N2CCOCC2)c1 + C[C@]1(O)C[C@@H](c2nc(-c3ccc4ccc(-c5ccccc5)nc4c3)c3c(N)nccn32)C1 [Linsitinib] (partner 1 µM) has a reported relative viability of 0.683

O=c1cc(-c2cccc3c2Sc2ccccc2S3)oc(N2CCOCC2)c1 + Cc1cc(Nc2cc(N3CCN(C)CC3)nc(Sc3ccc(NC(=O)C4CC4)cc3)n2)n[nH]1 [Tozasertib] (partner 0.1 µM) has a reported relative viability of 0.55

COc1nc(C)cnc1NS(=O)(=O)c1cccnc1-c1ccc(-c2nnco2)cc1 [Zibotentan] + Cc1cc(Nc2cc(N3CCN(C)CC3)nc(Sc3ccc(NC(=O)C4CC4)cc3)n2)n[nH]1 [Tozasertib] (partner 0.1 µM) has a reported relative viability of 0.583

* * *

tested on: EPLC-272H; assay: relative viability (nuclei count vs DMSO), 5 days (fraction); higher = more cells survive; conditions: first compound 0.01 µM
Give measured relative viability for each item. Keep answers brief.

CCN(CC)CCCCNc1ncc2cc(-c3cc(OC)cc(OC)c3)c(NC(=O)NC(C)(C)C)nc2n1 + CCNC(=O)c1noc(-c2cc(C(C)C)c(O)cc2O)c1-c1ccc(CN2CCOCC2)cc1 [Luminespib] (partner 0.01 µM) has a reported relative viability of 0.26

CCN(CC)CCCCNc1ncc2cc(-c3cc(OC)cc(OC)c3)c(NC(=O)NC(C)(C)C)nc2n1 + CC(=O)Nc1cccc(-n2c(=O)n(C3CC3)c(=O)c3c(Nc4ccc(I)cc4F)n(C)c(=O)c(C)c32)c1 [Trametinib] (partner 0.02 µM) has a reported relative viability of 0.263

CCN(CC)CCCCNc1ncc2cc(-c3cc(OC)cc(OC)c3)c(NC(=O)NC(C)(C)C)nc2n1 + CC(C)C[C@H](NC(=O)[C@H](Cc1ccccc1)NC(=O)c1cnccn1)B(O)O [Bortezomib] (partner 0.002 µM) has a reported relative viability of 1.02

CCN(CC)CCCCNc1ncc2cc(-c3cc(OC)cc(OC)c3)c(NC(=O)NC(C)(C)C)nc2n1 + Nc1ncn([C@H]2C[C@H](O)[C@@H](CO)O2)c(=O)n1 [Decitabine] (partner 2 µM) has a reported relative viability of 0.384

O=c1cc(N2CCOCC2)oc2c(-c3cccc4c3sc3ccccc34)cccc12 + C[C@]1(O)C[C@@H](c2nc(-c3ccc4ccc(-c5ccccc5)nc4c3)c3c(N)nccn32)C1 [Linsitinib] (partner 1 µM) has a reported relative viability of 0.987

CCN(CC)CCCCNc1ncc2cc(-c3cc(OC)cc(OC)c3)c(NC(=O)NC(C)(C)C)nc2n1 + COc1cccc2cc(-c3nc([C@H]4CC[C@H](C(=O)O)CC4)n4ncnc(N)c34)[nH]c12 [OSI-027] (partner 0.5 µM) has a reported relative viability of 0.272

O=c1cc(N2CCOCC2)oc2c(-c3cccc4c3sc3ccccc34)cccc12 + O=C(CCCCCCC(=O)Nc1ccccc1)NO [Vorinostat] (partner 1 µM) has a reported relative viability of 0.539

CCN(CC)CCCCNc1ncc2cc(-c3cc(OC)cc(OC)c3)c(NC(=O)NC(C)(C)C)nc2n1 + CS(=O)(=O)N1CCN(Cc2cc3nc(-c4cccc5[nH]ncc45)nc(N4CCOCC4)c3s2)CC1 [Pictilisib] (partner 1 µM) has a reported relative viability of 0.288
